Reference source: ChEMBL document CHEMBL3046747

Exercise: for every item that follows, state its recorded pIC50.
target-system: Ecdysone receptor (Spodoptera littoralis, UniProt E3UJZ5)
Sequence (E3UJZ5 whole entry): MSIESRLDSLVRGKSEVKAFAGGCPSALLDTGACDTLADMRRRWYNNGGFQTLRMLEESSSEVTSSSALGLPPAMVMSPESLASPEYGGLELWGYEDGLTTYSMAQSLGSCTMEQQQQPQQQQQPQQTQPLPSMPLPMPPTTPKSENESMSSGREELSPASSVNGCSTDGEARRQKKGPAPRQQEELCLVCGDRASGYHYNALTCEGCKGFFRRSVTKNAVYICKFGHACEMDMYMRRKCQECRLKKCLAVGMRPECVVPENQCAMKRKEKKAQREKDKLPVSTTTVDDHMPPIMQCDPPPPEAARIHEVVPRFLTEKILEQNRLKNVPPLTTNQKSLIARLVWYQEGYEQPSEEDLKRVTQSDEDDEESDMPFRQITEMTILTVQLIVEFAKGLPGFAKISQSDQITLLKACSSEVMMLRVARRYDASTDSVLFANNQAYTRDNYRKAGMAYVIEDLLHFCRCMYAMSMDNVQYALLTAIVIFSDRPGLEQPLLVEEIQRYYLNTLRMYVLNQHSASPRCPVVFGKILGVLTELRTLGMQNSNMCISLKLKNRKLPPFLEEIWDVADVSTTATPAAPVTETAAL
experiment-description: Antagonist activity at ecdysone receptor in Spodoptera littoralis Sl2 cells assessed as tebufenozide-induced effect treated 24 hr before tebufenozide challenge measured after 24 hr by luciferase reporter gene assay
Give bare numbers, as −log10 of the molar value.

// known answers, use as guide
Cc1ccc(NC2CCN(C(=O)c3ccc(Cl)cc3)CC2)cc1	4.82
Cc1ccc(NC2CC(C)N(C(=O)c3ccc(C)cc3)c3ccc(C)cc32)cc1 (stereo not given)	4.13
Cc1ccc(N(C(=O)c2ccc(Cl)cc2)C2CC(C)N(C(=O)c3ccc(Cl)cc3)c3ccc(C)cc32)cc1 (stereo not given)	4.89

Using the record for Cc1ccc(NC2CC(C)N(C(=O)c3ccc(Cl)cc3)c3ccc(C)cc32)cc1 (stereo not given) , report its pIC50. 4.10

----------
Exercise: for every item that follows, state its recorded Ratio.
experiment-description: Ratio of LD50 for Spodoptera littoralis to LD50 for Bombyx mori
Type: functional

// known answers, use as guide
CC(C)(C)N(NC(=O)c1ccccc1)C(=O)c1ccccc1 [RH-5849]	17.8
Cc1ccccc1C(=O)NN(C(=O)c1ccccc1Cl)C(C)(C)C	> 17
Cc1cc(C)cc(C(=O)N(NC(=O)c2ccc(C(C)(C)C)cc2)C(C)(C)C)c1	> 295
CCc1ccc(C(=O)NC2(C(=O)c3cc(C)cc(C)c3)CCCCC2)cc1	> 23.4

// each listed molecule needs a value for Ratio
1. CC(C)(C)N(NC(=O)c1cccc(Cl)c1)C(=O)c1ccccc1Cl
2. COc1cccc(C(=O)NN(C(=O)c2cc(C)cc(C)c2)C(C)(C)C)c1C [METHOXYFENOZIDE]
3. Cc1cc(C)cc(C(=O)C2(NC(=O)c3ccc4c(c3C)CCCO4)CCCCC2)c1
4. Cc1cc(C)cc(C(=O)N(NC(=O)c2cccc(C)c2C)C(C)(C)C)c1
5. CCc1ccc(C(=O)NN(C(=O)c2ccccc2)C(C)(C)C)cc1
6. CCc1ccc(C(=O)NN(C(=O)c2cc(C)cc(C)c2)C(C)(C)C)cc1 [TEBUFENOZIDE]
7. CCc1ccc(C(=O)NN(C(=O)c2cc(C)cc(C)c2Cl)C(C)(C)C)cc1

1. > 2.4
2. 3.16
3. > 13.8
4. 7.08
5. > 39.8
6. 10.5
7. > 3.39

// each listed molecule needs a value for Ratio
1. Cc1cc(C)cc(C(=O)N(NC(=O)c2ccccc2)C(C)(C)C)c1
2. CC(C)(C)N(NC(=O)c1ccc(Cl)cc1)C(=O)c1ccccc1 [HALOFENOZIDE]
3. Cc1cc(C)cc(C(=O)N(NC(=O)c2ccc3c(c2C)CCCO3)C(C)(C)C)c1 [CHROMAFENOZIDE]
4. CC(C)(C)N(NC(=O)c1ccccc1F)C(=O)c1ccccc1Cl
5. Cc1c(C(=O)NN(C(=O)c2ccccc2Cl)C(C)(C)C)ccc2c1CCCO2
6. COc1ccc(C(=O)NN(C(=O)c2ccccc2Cl)C(C)(C)C)cc1
7. Cc1cc(C)c(Cl)c(C(=O)N(NC(=O)c2ccc3c(c2C)CCCO3)C(C)(C)C)c1

> 3.09
12.3
1.12
> 468
> 355
> 12.3
> 4.47

Using the record for `CC(C)(C)N(NC(=O)c1ccc(Br)cc1)C(=O)c1ccccc1Cl` , report its Ratio. > 7.59
